tgt: ATP-dependent translocase ABCB1 (Homo sapiens, UniProt P08183)
Sequence (P08183 whole entry): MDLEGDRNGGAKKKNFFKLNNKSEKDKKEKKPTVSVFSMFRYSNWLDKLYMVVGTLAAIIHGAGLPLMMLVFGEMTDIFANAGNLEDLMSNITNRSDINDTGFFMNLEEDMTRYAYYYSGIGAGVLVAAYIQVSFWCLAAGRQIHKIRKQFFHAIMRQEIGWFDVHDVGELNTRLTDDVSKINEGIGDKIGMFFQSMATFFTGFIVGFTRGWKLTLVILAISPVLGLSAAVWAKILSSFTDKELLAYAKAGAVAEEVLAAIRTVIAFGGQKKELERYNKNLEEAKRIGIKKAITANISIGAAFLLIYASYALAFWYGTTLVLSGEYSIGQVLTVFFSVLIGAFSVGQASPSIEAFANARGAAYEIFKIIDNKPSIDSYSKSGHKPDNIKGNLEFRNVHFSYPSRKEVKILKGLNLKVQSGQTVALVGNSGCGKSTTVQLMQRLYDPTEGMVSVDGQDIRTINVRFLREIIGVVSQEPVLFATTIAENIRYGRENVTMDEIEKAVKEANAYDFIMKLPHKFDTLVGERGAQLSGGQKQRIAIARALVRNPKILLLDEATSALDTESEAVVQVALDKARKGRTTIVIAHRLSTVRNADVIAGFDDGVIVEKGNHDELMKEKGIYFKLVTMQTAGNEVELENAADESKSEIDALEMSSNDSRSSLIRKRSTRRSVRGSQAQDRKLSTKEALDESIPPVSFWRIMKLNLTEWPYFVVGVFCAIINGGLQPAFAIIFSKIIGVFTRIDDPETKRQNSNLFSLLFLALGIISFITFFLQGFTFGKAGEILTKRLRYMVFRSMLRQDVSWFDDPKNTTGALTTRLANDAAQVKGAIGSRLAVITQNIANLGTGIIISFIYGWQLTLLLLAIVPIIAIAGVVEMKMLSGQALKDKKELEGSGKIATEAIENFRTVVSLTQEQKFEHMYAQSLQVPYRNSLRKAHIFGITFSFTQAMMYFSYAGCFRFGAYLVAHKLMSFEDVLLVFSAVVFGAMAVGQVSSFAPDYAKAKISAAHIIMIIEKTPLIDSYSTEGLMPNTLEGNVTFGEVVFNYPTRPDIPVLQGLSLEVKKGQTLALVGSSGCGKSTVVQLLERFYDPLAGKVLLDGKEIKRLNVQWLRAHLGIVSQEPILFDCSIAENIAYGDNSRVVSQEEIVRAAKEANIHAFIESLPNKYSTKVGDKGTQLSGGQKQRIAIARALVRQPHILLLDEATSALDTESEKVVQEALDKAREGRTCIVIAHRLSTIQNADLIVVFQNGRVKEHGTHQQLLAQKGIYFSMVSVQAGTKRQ
assay text: Inhibition of full length human ABCB1 expressed in Flp-In-293 cells at 2.5 uM incubated for 30 mins by calcein-AM uptake assay relative to control
Type: cell-based
condition: 0.5 h
Criterion: fold change (FC) meeting or surpassing 0.9. Met: TRUE. Not met: FALSE.

Use the examples below as a reference point.
[
  {
    "test smiles": "COc1ccccc1-c1coc2cc3occ(-c4ccccc4OC)c(=O)c3c(O)c2c1=O",
    "tgt": "ATP-dependent translocase ABCB1 (Homo sapiens, UniProt P08183)",
    "qualitative label": "FALSE"
  },
  {
    "test smiles": "O=c1c(-c2ccccc2)coc2c1c(O)cc1occ(-c3ccccc3)c(=O)c12",
    "tgt": "ATP-dependent translocase ABCB1 (Homo sapiens, UniProt P08183)",
    "qualitative label": "TRUE"
  },
  {
    "test smiles": "O=c1c(-c2ccc(Cl)c(Cl)c2)coc2c1c(O)cc1occ(-c3ccc(Cl)c(Cl)c3)c(=O)c12",
    "tgt": "ATP-dependent translocase ABCB1 (Homo sapiens, UniProt P08183)",
    "qualitative label": "FALSE"
  },
  {
    "test smiles": "COc1ccccc1-c1coc2c(c(O)cc3occ(-c4ccccc4OC)c(=O)c32)c1=O",
    "tgt": "ATP-dependent translocase ABCB1 (Homo sapiens, UniProt P08183)",
    "qualitative label": "TRUE"
  },
  {
    "test smiles": "Cc1ccc(-c2coc3c(c(O)cc4occ(-c5ccc(C)cc5)c(=O)c43)c2=O)cc1",
    "tgt": "ATP-dependent translocase ABCB1 (Homo sapiens, UniProt P08183)",
    "qualitative label": "TRUE"
  }
]

Query: In plain terms: is recorded fold change (FC) at least 0.9 for `O=c1c(C2CC2)coc2c1c(O)cc1occ(C3CC3)c(=O)c12` ?
Reply: FALSE

Query: In plain terms: is recorded fold change (FC) at least 0.9 for `O=c1c(-c2cccc3ccccc23)coc2c1c(O)cc1occ(-c3cccc4ccccc34)c(=O)c12` ?
Reply: FALSE

Query: In plain terms: is recorded fold change (FC) at least 0.9 for `COc1ccc(-c2coc3cc4occ(-c5ccc(OC)cc5)c(=O)c4c(O)c3c2=O)cc1` ?
Reply: FALSE

Query: In plain terms: is recorded fold change (FC) at least 0.9 for `O=c1c(-c2c(F)cccc2Cl)coc2cc3occ(-c4c(F)cccc4Cl)c(=O)c3c(O)c12` ?
Reply: TRUE

Query: In plain terms: is recorded fold change (FC) at least 0.9 for `O=c1c(-c2cccc(C(F)(F)F)c2)coc2cc3occ(-c4cccc(C(F)(F)F)c4)c(=O)c3c(O)c12` ?
Reply: TRUE

Query: In plain terms: is recorded fold change (FC) at least 0.9 for `O=c1c(-c2ccc(OC(F)(F)F)cc2)coc2c1c(O)cc1occ(-c3ccc(OC(F)(F)F)cc3)c(=O)c12` ?
Reply: TRUE

---

tgt: ATP-dependent translocase ABCB1 (Homo sapiens)
assay text: Inhibition of full length human ABCB1 expressed in Flp-In-293 cells at 2.5 uM incubated for 30 mins by calcein-AM uptake assay relative to control
Assay type: cell-based
condition: 0.5 h
This listing pairs molecules with measured fold change (FC).

Query: Fill in reported fold change (FC) for this entry: `COc1cccc(-c2coc3c(c(O)cc4occ(-c5cccc(OC)c5)c(=O)c43)c2=O)c1`
Reply: 1.19

Query: Fill in reported fold change (FC) for this entry: `COc1ccc(-c2coc3c(c(O)cc4occ(-c5ccc(OC)cc5)c(=O)c43)c2=O)cc1`
Reply: 1.54

Query: Fill in reported fold change (FC) for this entry: `O=c1c(-c2ccccc2[N+](=O)[O-])coc2cc3occ(-c4ccccc4[N+](=O)[O-])c(=O)c3c(O)c12`
Reply: 0.85

Query: Fill in reported fold change (FC) for this entry: `Cc1ccc(-c2coc3cc4occ(-c5ccc(C)cc5)c(=O)c4c(O)c3c2=O)cc1`
Reply: 1.62

Query: Fill in reported fold change (FC) for this entry: `O=c1c(-c2cccc(F)c2)coc2c1c(O)cc1occ(-c3cccc(F)c3)c(=O)c12`
Reply: 0.96

Query: Fill in reported fold change (FC) for this entry: `O=c1c(-c2ccc(F)cc2)coc2cc3occ(-c4ccc(F)cc4)c(=O)c3c(O)c12`
Reply: 0.85
